Target: Tyrosine-protein kinase JAK3 (Homo sapiens, UniProt P52333)
Sequence (P52333 whole entry): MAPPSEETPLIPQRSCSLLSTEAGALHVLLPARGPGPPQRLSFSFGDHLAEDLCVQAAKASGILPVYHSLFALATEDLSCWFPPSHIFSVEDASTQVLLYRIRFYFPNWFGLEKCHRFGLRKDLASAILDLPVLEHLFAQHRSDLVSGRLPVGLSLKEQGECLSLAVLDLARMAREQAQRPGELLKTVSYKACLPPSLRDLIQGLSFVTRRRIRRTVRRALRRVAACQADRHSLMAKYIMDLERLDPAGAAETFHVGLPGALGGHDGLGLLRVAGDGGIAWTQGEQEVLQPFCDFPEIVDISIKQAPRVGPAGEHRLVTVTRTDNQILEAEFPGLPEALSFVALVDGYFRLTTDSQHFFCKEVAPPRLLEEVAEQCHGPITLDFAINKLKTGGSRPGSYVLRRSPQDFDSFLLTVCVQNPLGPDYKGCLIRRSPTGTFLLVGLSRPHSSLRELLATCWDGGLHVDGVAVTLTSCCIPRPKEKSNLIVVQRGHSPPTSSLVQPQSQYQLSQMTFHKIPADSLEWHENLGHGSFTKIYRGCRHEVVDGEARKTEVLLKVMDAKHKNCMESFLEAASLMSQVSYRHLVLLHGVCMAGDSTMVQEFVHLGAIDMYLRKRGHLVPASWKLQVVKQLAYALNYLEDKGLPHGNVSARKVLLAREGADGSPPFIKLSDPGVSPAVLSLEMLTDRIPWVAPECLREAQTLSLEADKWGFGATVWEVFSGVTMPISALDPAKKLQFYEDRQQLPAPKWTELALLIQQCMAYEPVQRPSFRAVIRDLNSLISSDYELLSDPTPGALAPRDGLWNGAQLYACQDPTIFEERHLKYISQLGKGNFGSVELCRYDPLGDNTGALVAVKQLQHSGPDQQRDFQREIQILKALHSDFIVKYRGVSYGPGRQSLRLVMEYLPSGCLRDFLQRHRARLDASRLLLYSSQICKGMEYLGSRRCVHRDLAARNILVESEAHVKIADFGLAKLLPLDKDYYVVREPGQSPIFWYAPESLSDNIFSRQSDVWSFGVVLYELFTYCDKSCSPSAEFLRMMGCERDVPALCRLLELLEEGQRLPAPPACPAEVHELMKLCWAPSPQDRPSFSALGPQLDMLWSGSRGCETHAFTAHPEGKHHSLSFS
// values below are reported IC50
Numbers only; they are read as µM.

>  <COMPOUND>
CN(c1ncnc2[nH]ccc12)N1CCC(C(=O)NCC#N)C1 (centres undefined)

>  <UOM>
µM

>  <IC50>
0.0251

$$$$
>  <COMPOUND>
CN(c1ncnc2[nH]ccc12)N1CCCC(C(=O)NCC(F)(F)F)C1 (centres undefined)

>  <UOM>
µM

>  <IC50>
0.0161

$$$$
>  <COMPOUND>
CN(c1ncnc2[nH]ccc12)N1CCC(C(=O)NCC(F)(F)F)CC1

>  <UOM>
µM

>  <IC50>
0.186

$$$$
>  <COMPOUND>
CN(c1ncnc2[nH]ccc12)N1CCCC(C(=O)N2CC(O)C2)C1 (centres undefined)

>  <UOM>
µM

>  <IC50>
0.518

$$$$
>  <COMPOUND>
CN(c1ncnc2[nH]ccc12)N1CCCC(N2CCCC2=O)C1 (centres undefined)

>  <UOM>
µM

>  <IC50>
0.349

$$$$
>  <COMPOUND>
CN(c1ncnc2[nH]ccc12)N1CCC(C(=O)NCC(F)(F)F)C1 (centres undefined)

>  <UOM>
µM

>  <IC50>
0.029

$$$$

Give IC50 for the following compound: CN(c1ncnc2[nH]ccc12)N1CCCC(C(=O)NCCC#N)C1 (centres undefined)
0.188

Give IC50 for the following compound: CN(c1ncnc2[nH]ccc12)N1CCCC(C(=O)NCC(F)F)C1 (centres undefined)
0.0083

Give IC50 for the following compound: CN(c1ncnc2[nH]ccc12)N1CCCN(C(=O)CC(F)(F)F)CC1
10

###

System: Tyrosine-protein kinase JAK2 (Homo sapiens, UniProt O60674) | Read-out: log10(IC50)
Sequence (O60674 whole entry): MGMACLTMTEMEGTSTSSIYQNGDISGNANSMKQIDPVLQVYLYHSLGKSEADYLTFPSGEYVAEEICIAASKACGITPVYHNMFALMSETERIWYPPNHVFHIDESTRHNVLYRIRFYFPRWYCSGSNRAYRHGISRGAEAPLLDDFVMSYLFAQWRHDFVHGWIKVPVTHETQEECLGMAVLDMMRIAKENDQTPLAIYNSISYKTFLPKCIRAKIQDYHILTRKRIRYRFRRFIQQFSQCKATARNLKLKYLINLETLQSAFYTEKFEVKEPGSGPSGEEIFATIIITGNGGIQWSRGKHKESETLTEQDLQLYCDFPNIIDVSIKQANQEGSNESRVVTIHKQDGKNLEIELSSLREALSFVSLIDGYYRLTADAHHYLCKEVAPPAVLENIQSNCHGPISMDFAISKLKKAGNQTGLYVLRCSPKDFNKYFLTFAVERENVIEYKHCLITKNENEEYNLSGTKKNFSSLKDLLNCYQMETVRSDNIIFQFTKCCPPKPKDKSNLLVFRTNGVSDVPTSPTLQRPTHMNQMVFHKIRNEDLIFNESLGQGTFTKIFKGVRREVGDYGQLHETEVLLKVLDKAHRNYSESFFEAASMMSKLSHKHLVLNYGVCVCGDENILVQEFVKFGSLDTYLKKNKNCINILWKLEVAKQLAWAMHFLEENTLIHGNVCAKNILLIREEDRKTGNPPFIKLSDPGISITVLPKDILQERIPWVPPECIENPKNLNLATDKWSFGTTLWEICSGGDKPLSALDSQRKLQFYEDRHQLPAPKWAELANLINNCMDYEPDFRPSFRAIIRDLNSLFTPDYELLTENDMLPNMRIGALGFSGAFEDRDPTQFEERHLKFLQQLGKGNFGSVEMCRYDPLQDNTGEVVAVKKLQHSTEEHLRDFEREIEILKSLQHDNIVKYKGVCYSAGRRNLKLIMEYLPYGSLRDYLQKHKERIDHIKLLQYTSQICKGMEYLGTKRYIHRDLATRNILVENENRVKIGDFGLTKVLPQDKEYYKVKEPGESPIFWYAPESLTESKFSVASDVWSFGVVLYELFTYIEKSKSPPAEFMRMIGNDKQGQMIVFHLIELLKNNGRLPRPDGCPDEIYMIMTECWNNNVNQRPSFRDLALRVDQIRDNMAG
The figures below represent log10 of IC50, where IC50 is stated in µM.

Example cases with answers are listed next.
>  <MOLECULE>
CC1CCC(C(=O)NCC#N)CN1N(C)c1ncnc2[nH]ccc12 (centres undefined)

>  <RESULT_NUMBER>
0.16

$$$$
>  <MOLECULE>
CN(c1ncnc2[nH]ccc12)N1CCCC(C)(C(=O)NCC#N)C1 (centres undefined)

>  <RESULT_NUMBER>
0.68

$$$$
>  <MOLECULE>
CN(c1ncnc2[nH]ccc12)N1CCC(C(=O)NCC#N)CC1

>  <RESULT_NUMBER>
-0.57

$$$$

Give the observed log10(IC50) of CN(c1ncnc2[nH]ccc12)N1CCCC(C(=O)NCC(F)F)C1 (centres undefined) for Tyrosine-protein kinase JAK2 (Homo sapiens, UniProt O60674).
-1.79

Give the observed log10(IC50) of CN(c1ncnc2[nH]ccc12)N1CCCC(C(=O)N2CC(O)C2)C1 (centres undefined) for Tyrosine-protein kinase JAK2 (Homo sapiens, UniProt O60674).
-0.09

###

Molecular target: Tyrosine-protein kinase JAK1 (Homo sapiens)
Sequence (P23458 whole entry): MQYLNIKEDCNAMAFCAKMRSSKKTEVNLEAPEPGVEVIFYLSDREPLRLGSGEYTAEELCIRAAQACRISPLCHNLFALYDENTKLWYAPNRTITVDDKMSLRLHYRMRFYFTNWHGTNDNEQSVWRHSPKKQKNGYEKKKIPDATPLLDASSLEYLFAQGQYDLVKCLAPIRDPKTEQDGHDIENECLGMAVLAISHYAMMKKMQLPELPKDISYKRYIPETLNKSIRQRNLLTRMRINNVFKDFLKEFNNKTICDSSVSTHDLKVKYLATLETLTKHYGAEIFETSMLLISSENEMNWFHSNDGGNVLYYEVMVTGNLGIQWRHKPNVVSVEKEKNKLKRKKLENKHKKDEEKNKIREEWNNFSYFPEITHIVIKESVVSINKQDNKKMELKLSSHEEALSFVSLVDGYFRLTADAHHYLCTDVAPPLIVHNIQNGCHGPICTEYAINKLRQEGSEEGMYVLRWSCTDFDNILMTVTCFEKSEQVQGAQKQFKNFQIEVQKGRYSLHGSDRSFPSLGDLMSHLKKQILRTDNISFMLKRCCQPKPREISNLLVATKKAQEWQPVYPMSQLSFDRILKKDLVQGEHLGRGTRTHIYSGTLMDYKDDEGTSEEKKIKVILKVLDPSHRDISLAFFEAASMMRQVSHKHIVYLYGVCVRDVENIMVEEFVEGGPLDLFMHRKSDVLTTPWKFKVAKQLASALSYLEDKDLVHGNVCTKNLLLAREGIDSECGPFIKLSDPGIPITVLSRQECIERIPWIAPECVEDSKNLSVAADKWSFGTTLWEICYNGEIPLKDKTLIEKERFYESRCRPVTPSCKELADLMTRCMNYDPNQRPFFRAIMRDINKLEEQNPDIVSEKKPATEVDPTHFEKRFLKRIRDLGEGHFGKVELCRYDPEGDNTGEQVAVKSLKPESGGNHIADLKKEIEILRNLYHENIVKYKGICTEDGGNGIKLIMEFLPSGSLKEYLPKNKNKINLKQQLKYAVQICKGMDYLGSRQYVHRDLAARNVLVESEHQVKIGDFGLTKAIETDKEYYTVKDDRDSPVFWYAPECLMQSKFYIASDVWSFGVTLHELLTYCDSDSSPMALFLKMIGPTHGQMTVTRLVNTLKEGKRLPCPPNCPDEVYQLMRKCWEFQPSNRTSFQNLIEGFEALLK
IC50 under 10 nM gets 1, anything at or over 10 nM gets -1.

>  <MOLECULE>
CC1CCC(C(=O)NCC#N)CN1N(C)c1ncnc2[nH]ccc12 (stereo not drawn)

>  <CATEGORY_LABEL>
-1

$$$$
>  <MOLECULE>
CN(c1ncnc2[nH]ccc12)N1CCC(C(=O)NCC#N)C1 (stereo not drawn)

>  <CATEGORY_LABEL>
1

$$$$
>  <MOLECULE>
CN(c1ncnc2[nH]ccc12)N1CCCC(C(=O)NCC#N)C1 (stereo not drawn)

>  <CATEGORY_LABEL>
1

$$$$
>  <MOLECULE>
CN(c1ncnc2[nH]ccc12)N1CC[C@H](C(=O)NCC(F)(F)F)C1

>  <CATEGORY_LABEL>
-1

$$$$
>  <MOLECULE>
CN(c1ncnc2[nH]ccc12)N1CCCC(C(=O)NCC(F)F)C1 (stereo not drawn)

>  <CATEGORY_LABEL>
1

$$$$
>  <MOLECULE>
CN(c1ncnc2[nH]ccc12)N1CCC(C)(C(=O)NCC(F)(F)F)C1 (stereo not drawn)

>  <CATEGORY_LABEL>
-1

$$$$

IC50 under 10 nM? Item: CN(c1ncnc2[nH]ccc12)N1CCC(C(=O)NCC(F)(F)F)CC1
-1

IC50 under 10 nM? Item: CN(c1ncnc2[nH]ccc12)N1CCC(C(=O)NCC#N)CC1
-1

###

Target: Tyrosine-protein kinase JAK2 (Homo sapiens)
OBSERVATION_TYPE: pIC50
Entry type: numeric. Quantity: pIC50, the -log10 of concentration in molar units.

Example cases with answers are listed next.
>  <COMPOUND>
CC1CCC(C(=O)NCC(F)(F)F)CN1N(C)c1ncnc2[nH]ccc12 (centres undefined)

>  <pIC50>
5.70

$$$$
>  <COMPOUND>
CN(c1ncnc2[nH]ccc12)N1CCC[C@@H](C(=O)NCC#N)C1

>  <pIC50>
8.44

$$$$
>  <COMPOUND>
CN(c1ncnc2[nH]ccc12)N1CCCC(C(=O)NCC(F)(F)F)C1 (centres undefined)

>  <pIC50>
7.48

$$$$

Next compound, please.
Give the observed pIC50 of CN(c1ncnc2[nH]ccc12)N1CCC(C(=O)NCC#N)C1 (centres undefined) for Tyrosine-protein kinase JAK2 (Homo sapiens).
7.37
